assay: yeast display, Sf9 membrane polyspecificity reagent, FACS + sequencing; frameworks hold sequencing errors
assay readout: polyreactivity (PSR sort gate)

Solved cases (6 shown):
HVQLVESGGVLVQAGGSLRLSCAATGSIFRNNAMGWYRQAPGKERDLVAAISSSGGSTFYADSVKGRFTISRDNAKNTVYLQMNSQNPEDTAVYYCAARVRSELIKRYDWGQGTQVTVSS : high polyreactivity
QVQLVESGGCLVQAGVSLRLSCAASGRIFAYYAMGWYRQAPRKERELVAAISRSGVSTYYADSVKGRFTISRDNAKNTVYIQMNSLKPEDTAVYYCAARWRSGFTSGDYWGQGTQVTVSS : low polyreactivity
QVQLVESGGGLVQAGGSLRLSCAASGSIFGWYAMGWYRQAPGKERELVASIRKSGGSTYYADSVKGRFTISRDNAKNTVYLQMNSLKPEDTAVYYCAAERYKNGAGQRKYAYDYWGQGTQVTVSS : high polyreactivity
QVQLVESGGGLVQAGGSLRLSCAASGLTSLGNAMGWYRQAPGKERELVAAITRTGTSTYYADSVKGRFTISRDNAKNTVYLQMNSLKPEDTAVYYCAALDRYSTEYKYQLYKQEYDYWGQGTQVTVSS : low polyreactivity
QVQLEESGGGLVQAGGSLRLSCAASGRTFRYNAMGWYRQAPGKERELVVAINWSGGSTYYADSVKGRFTISRDNAKNTVYLQMNSLKPEDTAVYYCAAEPTGWVWYAGYGYYWGQGTRVTVSS : high polyreactivity
QVQLVESGGGLVQAGGSLRLSCAASGRTFISYAMGWYRQAPGKERELVAAISWSGGRTSYADSVKGRFTISRDNAKNTVYLHMNSLKPEDTAVYYCNAQYNSWFAIKDYDYWGQGTQVTVSS : low polyreactivity

For QVQLVESGGGLVQAGGSLRLSCAASGSIFYVNTMGWYRQAPGKERELVAGITSRGGSTYYADSVKGRFTISRDNAKNTVYLQMNSLKPEDTAVYYCAKRAYGTALYRGYGYWGQGTQVTVSS , what is its reported polyreactivity (PSR sort gate)?
low polyreactivity

Then what about the sequence QVQLVESGGVLVQAGGSLRLSCAASGRIFDDYAMGWYRQAPGKERELVAAIRSGGNSNYADSVKGRFTISRDNAKNTVYLQMNSLTPEETAVYYCAADEVRSAWRCSSPPDYDHWGQGTHVTVSS ?
low polyreactivity

Then what about the sequence QVQLVESGGGLVQAGGSLRLSCAASGSIFPVYTMGWYRQAPGKERELVADIDSGGSTNYADSVKGRFTISRDNAKNTVYLQMNSLKPEVTAVYDCAADYYYYFYSLYIDPYAFDYWGLGTQVTVSS ?
low polyreactivity

Then what about the sequence QVQLVESGGGLVQAGGSLRLSCAASGSILQSYAMGWYRQAPGKERELVAAISGSGGSTYYADSVKGRFTISRDNAKNTVYLQMNSLKPEDTAVYYCAKGPLYRTSRGEFGYWGQGTQVTVSS ?
low polyreactivity

Then what about the sequence QVQLVESGGGLVQAGGSLRLSCAASGSIFQSYAMGWYRQAPGKERELVAAISYSGDGTFYADSVKGRFTISRDNAKNTVYLQMNSLKPEDTAVYYCAASSTGYGGSTYYYWGQGTQVTVSS ?
low polyreactivity

The values you see were collected from the nanobody polyreactivity screen of Harvey et al. (2022).
